The reported measurements were obtained from patent US12421212B2.

- TARGET: IL-17A/A (Homo sapiens, UniProt Q16552)
- Construct: purchased Genscript Z03228
- Sequence (Q16552 24-155): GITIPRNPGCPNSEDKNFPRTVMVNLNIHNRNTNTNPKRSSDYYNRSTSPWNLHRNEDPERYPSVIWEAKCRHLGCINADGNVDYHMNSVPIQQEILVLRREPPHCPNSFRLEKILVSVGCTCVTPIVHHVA
- ASSAY_REMARKS: IL-17A/A HEK-Blue Cell Assay
- Format: cell-based
- CONDITION_NOTES: HEK-Blue IL-17A reporter cell line, SEAP readout at A630, 20 hours incubation with IL-17A/A; top concentration 10 uM, 1 uM or 0.3 uM; read-out: IL-17A/A inhibition (pIC50) (converted)
# IC50 annotations

Example entries begin here.
MOLECULE	IC50
CCn1nccc1C(=O)N[C@H](C(=O)Nc1ccc(C[C@@H](Nc2ncnc3cnccc23)C(=O)N2CCN(C)CC2)cc1F)C1CCCCC1	10 to 100 nM
CCn1nccc1C(=O)N[C@H](C(=O)Nc1ccc([C@H](C)C(NC(=O)C(F)C2CC2)C(=O)N2CCN(C)[C@H](C)C2)cc1F)[C@H]1CC[C@H](C)CC1 (single isomer, unassigned)	< 10 nM
CCn1nccc1C(=O)N[C@H](C(=O)Nc1ccc([C@H](C)C(NC(=O)C(C)F)C(=O)N2CCN(C)[C@@H](C)C2)cc1F)[C@H]1CC[C@H](C)CC1 (single isomer, unassigned)	10 to 100 nM
CCC(=O)N[C@@H](C(=O)N1CCSCC1)[C@@H](C)c1ccc(NC(=O)[C@@H](NC(=O)c2ccnn2CC)[C@H]2CC[C@H](C)CC2)c(F)c1	10 to 100 nM

What IC50 value was documented for this molecule, CCC(=O)N[C@@H](C(=O)N1CCN(C)CC1)[C@@H](C)c1ccc(NC(=O)[C@@H](NC(=O)c2ccoc2C(C)C)C2CCCCCC2)c(F)c1 ?
< 10 nM

* * *

# IC50 annotations
- TARGET: IL-17A/A (Homo sapiens)
- Construct: purchased Genscript Z03228
- ASSAY_REMARKS: IL-17A/A HEK-Blue Cell Assay
- Assay type: cell-based
- CONDITION_NOTES: HEK-Blue IL-17A reporter cell line, SEAP readout at A630, 20 hours incubation with IL-17A/A; top concentration 10 uM, 1 uM or 0.3 uM; read-out: IL-17A/A inhibition (pIC50) (converted)

COMPOUND	TARGET	RESULT
CCC(=O)N[C@@H](C(=O)N1CCN(CC)[C@@H](C)C1)[C@@H](C)c1ccc(NC(=O)[C@@H](NC(=O)c2ccnn2CC)[C@H]2CC[C@H](C)CC2)c(F)c1 [Compound 427]	IL-17A/A (Homo sapiens)	< 10 nM
CCC(=O)N[C@@H](C(=O)N1CCN(C)CC1)[C@@H](C)c1ccc(NC(=O)[C@@H](NC(=O)c2ccnn2C(C)C)C2CCCCC2)cc1 [Compound 633]	IL-17A/A (Homo sapiens)	100 to 10000 nM
CCn1nccc1C(=O)N[C@H](C(=O)Nc1ccc([C@H](C)[C@@H](NC(=O)C(C)(F)F)C(=O)N2CCN(C)[C@H](C)C2)cc1F)[C@H]1CC[C@H](C)CC1 [Compound 480]	IL-17A/A (Homo sapiens)	< 10 nM
CCC(=O)N[C@H](Cc1ccc(NC(=O)[C@@H](NC(=O)C(F)(F)c2cccc(NS(C)(=O)=O)c2)C2CCCCC2)c(F)c1)C(=O)N1CCN(C)CC1 [Compound 642]	IL-17A/A (Homo sapiens)	100 to 10000 nM
CCn1nccc1C(=O)N[C@H](C(=O)Nc1ccc([C@H](C)[C@@H](NC(=O)c2cccs2)C(=O)N2CCN(C)CC2)cc1F)C1CCCCC1 [Compound 304]	IL-17A/A (Homo sapiens)	10 to 100 nM
CCC(=O)N[C@@H](C(=O)N1CCN(C)CC1)[C@@H](C)c1ccc(NC(=O)[C@@H](NC(=O)C(F)(F)c2cccc(C)c2)C2CCCCC2)c(F)c1 [Compound 684]	IL-17A/A (Homo sapiens)	100 to 10000 nM
C[C@@H](c1ccc(NC(=O)[C@@H](NC(=O)c2ccnn2C2CCCC2)[C@H]2CC[C@H](C)CC2)c(F)c1)[C@@H](NC(=O)C1(F)CC1)C(=O)N1CCOCC1 [Compound 380]	IL-17A/A (Homo sapiens)	10 to 100 nM
CCn1nccc1C(=O)N[C@H](C(=O)Nc1ccc([C@H](C)[C@@H](NC(=O)c2cnns2)C(=O)N2CCC(C)(O)CC2)cc1F)[C@H]1CC[C@H](C)CC1 [Compound 440]	IL-17A/A (Homo sapiens)	< 10 nM

What IC50 value was documented for this compound, CCC(=O)N[C@@H](C(=O)N1CCN(C)CC1)[C@@H](C)c1ccc(NC(=O)[C@@H](NC(=O)c2csc3ccncc23)C2CCCCC2)c(F)c1 [Compound 631] ?
100 to 10000 nM

What IC50 value was documented for this compound, CCn1nccc1C(=O)N[C@H](C(=O)Nc1ccc([C@H](C)[C@@H](NC(=O)c2ccsn2)C(=O)N2CCN(C)CC2)cc1F)C1CCCCC1 [Compound 685] ?
100 to 10000 nM

What IC50 value was documented for this compound, CCC(=O)N[C@@H](C(=O)N1CCN(C)CC1)[C@@H](C)c1ccc(NC(=O)C(NC(=O)c2nonc2CC)C(CC)c2ccc(F)cc2)c(F)c1 (single isomer, unassigned) [Compound 557] ?
100 to 10000 nM

What IC50 value was documented for this compound, CCC(=O)N[C@H](Cc1ccc(NC(=O)[C@@H](NC(=O)c2ccnn2CC(C)C)C2CCCCC2)c(F)c1)C(=O)N1CCN(C)CC1 [Compound 646] ?
100 to 10000 nM

What IC50 value was documented for this compound, CCc1nonc1C(=O)N[C@H](C(=O)Nc1ccc([C@H](C)C(NC(=O)C(C)F)C(=O)N2CCN(C)[C@H](C)C2)cc1F)[C@H]1CC[C@H](C)CC1 (single isomer, unassigned) [Compound 598] ?
10 to 100 nM

What IC50 value was documented for this compound, CCn1nccc1C(=O)N[C@H](C(=O)Nc1ccc([C@H](C)[C@@H](NC(=O)c2cnns2)C(=O)N2CCN(C)CC2)cc1F)C1CCCCC1 [Compound 310] ?
10 to 100 nM

What IC50 value was documented for this compound, CC(C)c1nonc1C(=O)N[C@H](C(=O)Nc1ccc([C@H](C)[C@@H](NC(=O)c2cnns2)C(=O)N2CCN(C)CC2)cc1F)[C@H]1CC[C@H](C)CC1 [Compound 550] ?
< 10 nM
